Recorded values, source PubChem BioAssay (NCI).

Test: NCI Yeast Anticancer Drug Screen. Data for the sgs1 mgt1 strain (AID 161);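 also: 0% = growth of cultures given vehicle only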
Settings: S. cerevisiae sgs1 mgt1 strain, at 50.0 µM (retest, dose inferred, filed as 5.0)
This is part of a sample that, as a whole, favours compounds with a hit. Of some 79,000 tested, about 15% had one in any assay. The source made the active and inactive calls. Rule as the data show it: active = growth inhibition above about 70%; inactive = the rest.
Classes used: y (active), n (inactive)

compound	discrete.label
COc1cc2c(cc1OC)-c1nc(N)sc1CC2	n
CC(CCOP(=O)(O)OCCC(C)CC(C)(C)C)CC(C)(C)C (centres undefined)	n
O=[N+]([O-])c1c(Cl)cccc1-c1c[nH]cc1Cl	y
O=C(N(c1ccc(Cl)cc1)c1ccc(Cl)cc1)C(Cl)(Cl)Cl	n
COC1OC(CI)C(OC(c2ccccc2)(c2ccccc2)c2ccccc2)C(OC(c2ccccc2)(c2ccccc2)c2ccccc2)C1OC(c1ccccc1)(c1ccccc1)c1ccccc1 (centres undefined)	n
O=c1[nH]c(CN2CCCCC2)nn1-c1ccccc1	n
O=[N+]([O-])c1ccc(NS(=O)(=O)c2ccccc2)c(NS(=O)(=O)c2ccccc2)c1	y
CC(C)(C)C1CCC(SCCO)CC1 (centres undefined)	y
CCOC(=O)N(c1ccccc1)N(CC)C(=O)/C(C)=N/Nc1ccc([N+](=O)[O-])cc1	y
ClC(Cl)=C1C(=C(Cl)Cl)C(Cl)(Cl)C1(Cl)Cl	y
Nc1ccccc1N=Nc1c(S(=O)(=O)O)cc2cc(S(=O)(=O)O)cc(O)c2c1O	n
N#CC(C(=O)CCc1nc2ccccc2[nH]1)c1c(Cl)cccc1Cl (centres undefined)	n
O=c1[nH]c(=O)c2n[nH]nc2[nH]1	n
CC1(C)N([O-])[N+](=O)C1(Br)c1ccccc1 (centres undefined)	y
c1cc2c3c(c1)[I+]c1cccc(c1-3)[I+]2	y
Cc1ccccc1CN(C)CCO	n
COC(=O)c1c2oc3c(C(=O)OC)cccc3nc-2cc(N)c1=O	n
CC(=O)NCCN(C)C	n
Cc1noc(NS(=O)(=O)c2ccc(NC(=S)/N=C/c3c(O)[nH]c(=O)[nH]c3=O)cc2)c1C	n
CCCCCCSc1nn(CCC#N)c(=O)[nH]c1=O	n
O=C1COC(=O)/C1=C\C=C\c1ccccc1	y
C#CCOC(=O)Nc1nc2ccc(SC#N)cc2s1	y
CCOC(=O)C1SC(=Nc2ccc(Cl)cc2C)N=C1C (centres undefined)	y
C=CS(=O)(=O)c1ccc(C)cc1	n
CCCCCCCCCCCCNC(=O)C[n+]1cccc(C(N)=O)c1	y
COC(=O)N/N=C(\C)C(CN1CCOCC1)C(c1ccccc1)c1cc2ccccc2oc1=O (centres undefined)	n
COc1cc2c(cc1O)CCCCC2	n
CC1(C)COC(C)(C(=O)O)OC1	n
CN1C=C(C#N)CCC1Sc1ccc(Cl)cc1 (centres undefined)	n
Clc1ccccc1/C=C/c1nccc2ccccc12	y
OC(c1ccccc1)(c1ccccc1)C(F)(Cl)Cl	n
O=C1NC(=O)C(c2ccccc2)(c2ccccc2)C2CC3c4[nH]c5ccccc5c4CCN3CC12 (centres undefined)	n
O=C1/C(=C/c2ccc(Cl)cc2)CCC/C1=C\c1ccc(O)c(CN2CCCCC2)c1	n
c1ccc([P+](CCCCCC[P+](c2ccccc2)(c2ccccc2)c2ccccc2)(c2ccccc2)c2ccccc2)cc1	y
CC(=O)/C(=C/n1c(=S)[nH]c2ccc([N+](=O)[O-])cc21)C(=O)Nc1ccc(Cl)cc1	n
COc1cc(/C=C2/N=C(c3ccccc3)N(C3=NNC4(C(=O)N3)c3ccccc3-c3ccccc34)NC2=O)ccc1O	n
COc1ccc(/C=C/c2ccnc3ccccc23)cc1	y
Clc1ccc2c(Cl)c3c(nc2c1)CCCC3	y
CCN(CC)c1ccc(NC(C(=O)c2ccccc2)c2ccc3c(c2)OCO3)cc1 (centres undefined)	n
CC(NCCO)c1ccc2ccccc2c1 (centres undefined)	n
N#CC1=C(N)OC(/C=C/c2ccccc2)=C(C#N)C1c1ccccc1 (centres undefined)	y
O=C1CSC(=S)N1c1ccc(I)cc1	n
NC(=O)N/N=C/c1ccc(Cl)s1	n
Clc1ccc(CN2COc3c(cc(Cl)c4cccnc34)C2)cc1	y

* * *

Assay: NCI Yeast Anticancer Drug Screen. Data for the mec2-1 strain (AID 157)
Settings: S. cerevisiae mec2-1 strain, at 50.0 µM
About 79,000 compounds went through this panel and 15% of them were active in at least one assay; those are over-represented in the sample as a whole. Activity calls are given as the source filed them. No stated cut-off is given here; in the data, active means growth inhibition above about 70%; inactive means the rest.
Classes used: active, inactive

molecule	discrete.label
O=c1c(O)c(-c2ccc(Cl)cc2)oc2cc(O)ccc12	active
O=C1C(c2ccccc2)CS(=O)(=O)CC1c1ccccc1 (stereo not drawn)	inactive
c1ccc2c(Nc3ccc(Oc4ccc(Nc5c6ccccc6nc6ccccc56)cc4)cc3)c3ccccc3nc2c1	inactive
COC(=O)c1c(/C(=N/Nc2ccc([N+](=O)[O-])cc2)[N+](=O)[O-])ssc1=N	inactive
CSC(=S)N/N=C\C(O)C(O)C(O)C(O)CO (stereo not drawn)	active
N=C(N)c1ccc(Oc2ccc(Oc3ccc(C(=N)N)cc3)cc2)cc1	active
COc1ccc(N=Nc2ccc3oc(=O)c(C(=O)Nc4ccc(OC)cc4)cc3c2)cc1	active
O/N=C1/CC2CCCc3ccc4cccc1c4c32 (stereo not drawn)	inactive
COc1ccc2oc(-c3ccc(OC)c(OC)c3OC)cc(=O)c2c1	inactive
CC1(c2ccc(Cl)cc2)OC(=O)c2c1ccc1ccccc21 (stereo not drawn)	active
CC(C)c1ccc(O)c(O)c(=O)c1 (tested in a mixture with another compound)	active
CCCCN(CCCC)CCC(O)c1cc2c(c3ccccc13)CCCC2 (stereo not drawn)	active
NNC(=O)c1ccc(N)cc1O	inactive
O=C1OC2=C(CCc3nc(-c4ccccc4)sc32)C(N(c2ccccc2)c2ccccc2)C1(Cl)Cl (stereo not drawn)	inactive
Cc1ccc2c(c1)SSc1ccc(C)cc1SS2	inactive
CSc1ncc2c(n1)-c1ccccc1OC2NC1CC1 (stereo not drawn)	inactive
CCc1ccccc1NC(=O)C(=O)CC(=O)c1ccc(Cl)s1	inactive
CCCCNc1ccc(-c2c(N)nc(N)nc2CC)cc1[N+](=O)[O-]	inactive
O=[N+]([O-])C(/C=C(\Cl)n1nnc2ccccc21)=C(/Cl)n1nnc2ccccc21	inactive
Clc1ccccc1C(Cc1c(Cl)cccc1Cl)Cn1ccnc1 (stereo not drawn)	active
CSC1NNC2(C(=O)N1)c1ccccc1-c1ccccc12 (stereo not drawn)	active
CCCCCCCCCCOC1C(C(O)CNCCCN(C)C)OC2OC3(CCCCC3)OC21 (stereo not drawn)	active
O=C1C=C(c2cccc(-c3ccccc3)c2)CCC1	active

* * *

Each record here notes measured growth inhibition.
Assay: NCI Yeast Anticancer Drug Screen. Data for the mec2-1 strain (AID 157)
Conditions: S. cerevisiae mec2-1 strain, at 50.0 µM, active compounds read high
Procedure: Growth inhibition of yeast strains with defined genetic alterations is measured as a screen for potential anti-cancer activity. Selected strains with alterations in DNA damage repair or cell cycle control were exposed to compounds and growth inhibition was measured relative to vehicle treated controls. The strain used in this assay is mec2-1
About 79,000 compounds went through this panel and 15% of them were active in at least one assay; those are over-represented in the sample as a whole.

compound	unit	growth inhibition
CC(=O)OC1=C(CC(C)C)C(=O)c2ccccc2C1=O	%	59.2
COc1cc(C/C=C/c2ccccc2)c(OC)cc1O	%	61.7
O=C(CNc1cccc(Cl)c1)Nn1c(-c2ccccc2)nc2ccccc2c1=O	%	87.7
O=[N+]([O-])c1cc([N+](=O)[O-])c2ccccc2c1O	%	65.1
CC/C(=C(\CC)c1ccc(OCCN2CCOCC2)cc1)c1ccc(OCCN2CCOCC2)cc1	%	70.5
CC1(CO)CCCC2(C)C3=C(CCCC3)CCC12 (stereo unspecified)	%	52.1
CCOC(=O)C1CN(CCCCCCN2CC(C(=O)OCC)C(=O)C2=O)C(=O)C1=O (stereo unspecified)	%	3.1
CN(C)CCC[Si]1(C)c2ccccc2CCc2ccccc21	%	40
Oc1ccc(C(c2ccccc2)(c2ccccc2)c2ccccc2)cc1O	%	98.7
O=c1oc(-c2ccccc2Br)ns1	%	99.6
CCOC(=O)C1SC(=Nc2ccc(Cl)cc2C)N=C1C (stereo unspecified)	%	92.2

* * *

Assay: NCI Yeast Anticancer Drug Screen. Data for the bub3 strain (AID 167)
Details: S. cerevisiae bub3 mutant strain, at 50.0 µM (retest, dose inferred, filed as 5.0)
Protocol: Growth inhibition of yeast strains with defined genetic alterations is measured as a screen for potential anti-cancer activity. Selected strains with alterations in DNA damage repair or cell cycle control were exposed to compounds and growth inhibition was measured relative to vehicle treated controls. The strain used in this assay is bub3
This is part of a sample that, as a whole, favours compounds with a hit. Of some 79,000 tested, about 15% had one in any assay. The source made the active and inactive calls. Rule as the data show it: active = growth inhibition above about 70%; inactive = the rest.
Classes used: True = active, False = inactive

compound	discrete.label
O=C(O)C(=O)Cc1ccc(O)cc1	False
CCCCCOC(=O)CSC#N	True
CC=CCOc1cc(NC(=S)OC(C)C)ccc1Cl (mixture of isomers)	True
O=C(O)c1ccccc1-c1c2cc([N+](=O)[O-])c(=O)c(Br)c-2oc2c(Br)c(O)c([N+](=O)[O-])cc12	True
Cc1cc(O)c(C=NC(=S)C(N)=S)c(=O)o1	False
C1=C(c2ccccc2)CCc2c1ccc1ccccc21	False
Cc1cccc(NC(=O)CCc2ccc(Cl)cc2)n1	False
COc1ccc(C2=C(Cl)C(=O)N(c3ccccc3Cl)C(=O)C2(Cl)Cl)cc1	True
CCCCCCCCCCCC1=NCC(C)N1 (stereo unspecified)	False
COC(=O)[C@@H]1c2cc3c(c(O)c2[C@@H](OC)C[C@@]1(C)O)C(=O)c1c(O)cc2c(c1C3=O)OC1O[C@@]2(C)[C@H](O)[C@@H](N(C)C)[C@@H]1O	True
CC(=O)N1C(c2[nH]c3ccccc3c2-c2ccccc2)CCN1c1ccccc1 (stereo unspecified)	True
CC(=O)/C(=C\c1cccs1)C(=O)CCN(C)C	False
Cc1cccc2c(CBr)cc(=O)[nH]c12	True
O=CNC(CCCC(=O)O)Cc1cc2ccccc2c2ccccc12 (stereo unspecified)	False
CCCCCCCCC1OC1CCCCCCCC(=O)OCC1CO1 (stereo unspecified)	False
COC1=C(C)C(=O)C2=C(C1=O)C1C3CC4=C(C(=O)C(OC)=C(C)C4=O)C(CNC(=O)C(C)=O)N3C(C#N)C(C2)N1C (stereo unspecified)	True
COC(=O)c1ccc(SCC(=O)c2ccc([N+](=O)[O-])o2)cc1	False
O=C1c2ccccc2C(=O)c2c1ccc(O)c2O.[Cu]	True
O=c1nc(NC(c2ccccc2)(c2ccccc2)c2ccccc2)ccn1CCNCCn1ccc(NC(c2ccccc2)(c2ccccc2)c2ccccc2)nc1=O	True
O=C1c2ccccc2-c2cc([N+](=O)[O-])c([N+](=O)[O-])cc21	True
CCOC(=O)C1(Br)CCN(S(=O)(=O)c2ccc(C)cc2)c2ccccc2C1=O (stereo unspecified)	True
